Recorded measurements of percent inhibition of viability, one per entry
tested on: normal primary NK cells, pool 1 (3 donors), resting (IL-2 0 ng/mL); assay: percent inhibition of viability; higher = more inhibition; settings: 72 h; 100 nM;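 further: normalised to DMSO-only wells as negative and benzethonium chloride as positive control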
measurement.type: percent inhibition of viability (%)

1) CCc1c2c(nc3ccc(OC(=O)N4CCC(N5CCCCC5)CC4)cc13)-c1cc3c(c(=O)n1C2)COC(=O)[C@]3(O)CC [Irinotecan] (max concentration tested 10000 nM) ... 22.8
2) COc1cc2ncnc(Nc3ccc(F)c(Cl)c3)c2cc1OCCCN1CCOCC1 [Gefitinib] (max concentration tested 10000 nM) ... -4.48
3) O=C(c1ccc(F)c(F)c1Nc1ccc(I)cc1F)N1CC(O)([C@@H]2CCCCN2)C1 [Cobimetinib] (max concentration tested 1000 nM) ... 14
4) O=C(Nc1ccncc1)C(=O)c1cn(Cc2ccc(Cl)cc2)c2ccccc12 [Indibulin] (max concentration tested 10000 nM) ... 20.6
5) O=C(/C=C/c1cccnc1)NCCCCC1CCN(C(=O)c2ccccc2)CC1 [Daporinad] (max concentration tested 1000 nM) ... 93.4
6) O=C(O)c1ccc(O)c2ncccc12 [IOX-1] (max concentration tested 100000 nM) ... -11
7) CCc1nc(-c2cccc(C)c2)c(-c2ccnc(NC(=O)c3ccccc3)c2)s1 [TAK-715] (max concentration tested 10000 nM) ... -2.35
8) CC(=O)NCC(=O)N1[C@@H]2CC[C@H]1c1ccc(Nc3ncc(C(F)(F)F)c(NC4CCC4)n3)cc12 (max concentration tested 10000 nM) ... -21.3
9) O=C(Nc1cccc(Cl)c1)Nc1ncc(CCNc2ncnc3ccsc23)s1 [SNS-314] (max concentration tested 1000 nM) ... 17.5
10) Cn1c(=O)c(F)c(Nc2ccc(I)cc2F)c2c(=O)n(C[C@@H](O)CO)cnc21 [TAK-733] (max concentration tested 1000 nM) ... -6.45
11) Cc1sc2c(c1C)C(c1ccc(Cl)cc1)=N[C@@H](CC(=O)Nc1ccc(O)cc1)c1nnc(C)n1-2 [OTX015] (max concentration tested 10000 nM) ... 18.6
12) CC[C@]1(O)C[C@@H]2CN(CCc3c([nH]c4ccccc34)[C@@](C(=O)OC)(c3cc4c(cc3OC)N(C)[C@H]3[C@@](O)(C(=O)OC)[C@H](OC(C)=O)[C@]5(CC)C=CCN6CC[C@]43[C@@H]65)C2)C1 [Vinblastine] (max concentration tested 1000 nM) ... 17.9
13) CCn1c(-c2nonc2N)nc2c(C#CC(C)(C)O)ncc(OC[C@H]3CCCNC3)c21 (max concentration tested 10000 nM) ... 17.9
14) CN(C)c1cc2c(cc1Sc1nc3c(N)nccc3n1CCNCC(C)(C)C)OCO2 [CUDC-305] (max concentration tested 10000 nM) ... 27.6
15) O=C(/C=C\n1cnc(-c2cc(C(F)(F)F)cc(C(F)(F)F)c2)n1)NNc1cnccn1 [Selinexor] (max concentration tested 10000 nM) ... 77.9
16) COc1cc(F)c(F)c(Nc2ccc(I)cc2F)c1NS(=O)(=O)C1(C[C@H](O)CO)CC1 [Refametinib] (max concentration tested 10000 nM) ... 10.7
17) CCN1CCN(c2ccc(Nc3cc(N(C)C(=O)Nc4c(Cl)c(OC)cc(OC)c4Cl)ncn3)cc2)CC1 [NVP-BGJ398] (max concentration tested 1000 nM) ... 4.77
18) O=C(O)c1ccc(Nc2ncc3c(n2)-c2ccc(Cl)cc2C(c2c(F)cccc2F)=NC3)cc1 [MLN-8054] (max concentration tested 10000 nM) ... 0.26
19) CN1CC[C@H](c2c(O)cc(O)c3c(=O)cc(-c4ccccc4Cl)oc23)[C@H](O)C1 [Alvocidib] (max concentration tested 10000 nM) ... -4.81
